tested on: NCI-H1437; test: relative viability (nuclei count vs DMSO), 5 days (fraction); higher = more cells survive; details: first compound 0.8 µM
What relative viability was measured for each of the following?
Numbers only.

// solved cases for relative viability follow
Molecule	relative viability
Cc1cnc(-c2cnc(NCCNc3ccc(C#N)cn3)nc2-c2ccc(Cl)cc2Cl)[nH]1 + Nc1ncn([C@H]2C[C@H](O)[C@@H](CO)O2)c(=O)n1 [Decitabine] (partner 2 µM)	0.558
Cc1cnc(-c2cnc(NCCNc3ccc(C#N)cn3)nc2-c2ccc(Cl)cc2Cl)[nH]1 + CC(C)C[C@H](NC(=O)[C@H](Cc1ccccc1)NC(=O)c1cnccn1)B(O)O [Bortezomib] (partner 0.002 µM)	0.451
O=c1[nH]c2ccccc2n1C1CCN(CCCC(c2ccc(F)cc2)c2ccc(F)cc2)CC1 [Pimozide] + Nc1ncn([C@H]2C[C@H](O)[C@@H](CO)O2)c(=O)n1 [Decitabine] (partner 2 µM)	0.555
Cc1cnc(-c2cnc(NCCNc3ccc(C#N)cn3)nc2-c2ccc(Cl)cc2Cl)[nH]1 + COc1cc2c(Oc3ccc(NC(=O)C4(C(=O)Nc5ccc(F)cc5)CC4)cc3F)ccnc2cc1OCCCN1CCOCC1 [Foretinib] (partner 0.25 µM)	1.24
Cc1cnc(-c2cnc(NCCNc3ccc(C#N)cn3)nc2-c2ccc(Cl)cc2Cl)[nH]1 + CC(=O)c1c(C)c2cnc(Nc3ccc(N4CCNCC4)cn3)nc2n(C2CCCC2)c1=O [Palbociclib] (partner 0.5 µM)	0.281

For the molecule O=c1[nH]c2ccccc2n1C1CCN(CCCC(c2ccc(F)cc2)c2ccc(F)cc2)CC1 [Pimozide] + Cc1nc(Nc2ncc(C(=O)Nc3c(C)cccc3Cl)s2)cc(N2CCN(CCO)CC2)n1 [Dasatinib] (partner 0.075 µM) , what relative viability is on record?
0.402

----------
test system: UMC-11; assay: relative viability (nuclei count vs DMSO), 5 days (fraction); higher = more cells survive; settings: first compound 50 µM
Property measured: relative viability
Answers are plain numbers.

Compound	relative viability
O=C(O)CCCCC(CCSCc1ccccc1)SCc1ccccc1 (configuration not stated) [CPI-613] + N=C(N)NC(=N)NCCc1ccccc1 [Phenformin] (partner 250 µM)	0.289
O=C(O)CCCCC(CCSCc1ccccc1)SCc1ccccc1 (configuration not stated) [CPI-613] + CC(C)C[C@H](NC(=O)[C@H](Cc1ccccc1)NC(=O)c1cnccn1)B(O)O [Bortezomib] (partner 0.002 µM)	0.692
O=C(O)CCCCC(CCSCc1ccccc1)SCc1ccccc1 (configuration not stated) [CPI-613] + C[C@]1(O)C[C@@H](c2nc(-c3ccc4ccc(-c5ccccc5)nc4c3)c3c(N)nccn32)C1 [Linsitinib] (partner 1 µM)	0.992
O=C(O)CCCCC(CCSCc1ccccc1)SCc1ccccc1 (configuration not stated) [CPI-613] + COc1cccc2cc(-c3nc([C@H]4CC[C@H](C(=O)O)CC4)n4ncnc(N)c34)[nH]c12 [OSI-027] (partner 0.5 µM)	0.426
O=C(O)CCCCC(CCSCc1ccccc1)SCc1ccccc1 (configuration not stated) [CPI-613] + CS(=O)(=O)N1CCN(Cc2cc3nc(-c4cccc5[nH]ncc45)nc(N4CCOCC4)c3s2)CC1 [Pictilisib] (partner 1 µM)	0.496
O=C(O)CCCCC(CCSCc1ccccc1)SCc1ccccc1 (configuration not stated) [CPI-613] + COc1cc2c(Oc3ccc(NC(=O)C4(C(=O)Nc5ccc(F)cc5)CC4)cc3F)ccnc2cc1OCCCN1CCOCC1 [Foretinib] (partner 0.25 µM)	0.995

Next item in the queue.
Which value of relative viability has been reported for O=C(O)CCCCC(CCSCc1ccccc1)SCc1ccccc1 (configuration not stated) [CPI-613] + C[C@@H](Oc1cc(-c2cnn(C3CCNCC3)c2)cnc1N)c1c(Cl)ccc(F)c1Cl [Crizotinib] (partner 1 µM) in the records?
0.696

----------
Please respond with reported relative viability for every item in the list.
test system: SW 1573; experiment: relative viability (nuclei count vs DMSO), 5 days (fraction); higher = more cells survive; conditions: first compound 8 µM
Numbers only.

Molecule	Assay target	relative viability
O=c1[nH]c2ccccc2n1C1CCN(CCCC(c2ccc(F)cc2)c2ccc(F)cc2)CC1 [Pimozide] + O=C(c1cc(Cc2n[nH]c(=O)c3ccccc23)ccc1F)N1CCN(C(=O)C2CC2)CC1 [Olaparib] (partner 8 µM)	SW 1573	0.391
O=c1[nH]c2ccccc2n1C1CCN(CCCC(c2ccc(F)cc2)c2ccc(F)cc2)CC1 [Pimozide] + CCNC(=O)c1noc(-c2cc(C(C)C)c(O)cc2O)c1-c1ccc(CN2CCOCC2)cc1 [Luminespib] (partner 0.01 µM)	SW 1573	0.198
O=c1[nH]c2ccccc2n1C1CCN(CCCC(c2ccc(F)cc2)c2ccc(F)cc2)CC1 [Pimozide] + CC1(C)CCC(c2ccc(Cl)cc2)=C(CN2CCN(c3ccc(C(=O)NS(=O)(=O)c4ccc(N[C@H](CCN5CCOCC5)CSc5ccccc5)c(S(=O)(=O)C(F)(F)F)c4)cc3)CC2)C1 [Navitoclax] (partner 0.5 µM)	SW 1573	0.796

Continue with the next molecule.
Look up relative viability: O=c1[nH]c2ccccc2n1C1CCN(CCCC(c2ccc(F)cc2)c2ccc(F)cc2)CC1 [Pimozide] + CS(=O)(=O)CCNCc1ccc(-c2ccc3ncnc(Nc4ccc(OCc5cccc(F)c5)c(Cl)c4)c3c2)o1 [Lapatinib] (partner 2 µM)
1.11

----------
tested on: NCI-H522; experiment: relative viability (nuclei count vs DMSO), 5 days (fraction); higher = more cells survive; details: first compound 0.253 µM
Property measured: relative viability
Answers are plain numbers.

Some compounds with known relative viability results, for comparison:
Compound	Property measured	Data value
Cc1cnc(-c2cnc(NCCNc3ccc(C#N)cn3)nc2-c2ccc(Cl)cc2Cl)[nH]1 + Cc1nc(Nc2ncc(C(=O)Nc3c(C)cccc3Cl)s2)cc(N2CCN(CCO)CC2)n1 [Dasatinib] (partner 0.075 µM)	relative viability	0.996
Cc1cnc(-c2cnc(NCCNc3ccc(C#N)cn3)nc2-c2ccc(Cl)cc2Cl)[nH]1 + Nc1ncn([C@H]2C[C@H](O)[C@@H](CO)O2)c(=O)n1 [Decitabine] (partner 2 µM)	relative viability	0.68

Consider the record given below.
Given the compound Cc1cnc(-c2cnc(NCCNc3ccc(C#N)cn3)nc2-c2ccc(Cl)cc2Cl)[nH]1 + CC(=O)Nc1cccc(-n2c(=O)n(C3CC3)c(=O)c3c(Nc4ccc(I)cc4F)n(C)c(=O)c(C)c32)c1 [Trametinib] (partner 0.02 µM) , what is its reported relative viability?
0.719

----------
Exercise: for every item that follows, state its recorded relative viability.
test system: NCI-H2009; assay: relative viability (nuclei count vs DMSO), 5 days (fraction); higher = more cells survive; details: first compound 0.1581 µM

Compound	relative viability
COc1cc2nccc(Oc3ccc(NC(=O)Nc4cc(C)on4)c(Cl)c3)c2cc1OC [Tivozanib] + Nc1nc2[nH]cc(CCc3ccc(C(=O)N[C@@H](CCC(=O)O)C(=O)O)cc3)c2c(=O)[nH]1 [Pemetrexed] (partner 0.2 µM)	1.06

Provide reported relative viability for each item, in the same order as listed.
1. COc1cc2nccc(Oc3ccc(NC(=O)Nc4cc(C)on4)c(Cl)c3)c2cc1OC [Tivozanib] + C[C@@H](Oc1cc(-c2cnn(C3CCNCC3)c2)cnc1N)c1c(Cl)ccc(F)c1Cl [Crizotinib] (partner 1 µM)
2. Nc1ccn([C@@H]2O[C@H](CO)[C@@H](O)[C@@H]2O)c(=O)n1 [Cytarabine] + C[C@]1(O)C[C@@H](c2nc(-c3ccc4ccc(-c5ccccc5)nc4c3)c3c(N)nccn32)C1 [Linsitinib] (partner 1 µM)
3. COc1cc2nccc(Oc3ccc(NC(=O)Nc4cc(C)on4)c(Cl)c3)c2cc1OC [Tivozanib] + CCNC(=O)c1noc(-c2cc(C(C)C)c(O)cc2O)c1-c1ccc(CN2CCOCC2)cc1 [Luminespib] (partner 0.01 µM)
4. COc1cc2nccc(Oc3ccc(NC(=O)Nc4cc(C)on4)c(Cl)c3)c2cc1OC [Tivozanib] + O=C(CCCCCCC(=O)Nc1ccccc1)NO [Vorinostat] (partner 1 µM)
5. COc1cc2nccc(Oc3ccc(NC(=O)Nc4cc(C)on4)c(Cl)c3)c2cc1OC [Tivozanib] + CS(=O)(=O)N1CCN(Cc2cc3nc(-c4cccc5[nH]ncc45)nc(N4CCOCC4)c3s2)CC1 [Pictilisib] (partner 1 µM)

1.03
0.83
1.04
0.738
0.633

GET /values?readout=relative viability&item= COc1cc2nccc(Oc3ccc(NC(=O)Nc4cc(C)on4)c(Cl)c3)c2cc1OC [Tivozanib] + Cc1nc(Nc2ncc(C(=O)Nc3c(C)cccc3Cl)s2)cc(N2CCN(CCO)CC2)n1 [Dasatinib] (partner 0.075 µM)
0.262

----------
system: NCI-H1650; assay: relative viability (nuclei count vs DMSO), 5 days (fraction); higher = more cells survive; conditions: first compound 0.005 µM
Property measured: relative viability
Give bare numbers.

Example cases with answers are listed next.
Compound	Assay target	relative viability
COc1cc2nccc(Oc3ccc(NC(=O)Nc4cc(C)on4)c(Cl)c3)c2cc1OC [Tivozanib] + N=C(N)NC(=N)NCCc1ccccc1 [Phenformin] (partner 250 µM)	NCI-H1650	0.454
COc1cc2nccc(Oc3ccc(NC(=O)Nc4cc(C)on4)c(Cl)c3)c2cc1OC [Tivozanib] + Cc1cc(Nc2cc(N3CCN(C)CC3)nc(Sc3ccc(NC(=O)C4CC4)cc3)n2)n[nH]1 [Tozasertib] (partner 0.1 µM)	NCI-H1650	0.445
Nc1ccn([C@@H]2O[C@H](CO)[C@@H](O)[C@@H]2O)c(=O)n1 [Cytarabine] + CCNC(=O)c1noc(-c2cc(C(C)C)c(O)cc2O)c1-c1ccc(CN2CCOCC2)cc1 [Luminespib] (partner 0.01 µM)	NCI-H1650	0.208
Nc1ccn([C@@H]2O[C@H](CO)[C@@H](O)[C@@H]2O)c(=O)n1 [Cytarabine] + COc1cc2c(Oc3ccc(NC(=O)C4(C(=O)Nc5ccc(F)cc5)CC4)cc3F)ccnc2cc1OCCCN1CCOCC1 [Foretinib] (partner 0.25 µM)	NCI-H1650	0.783
Nc1ccn([C@@H]2O[C@H](CO)[C@@H](O)[C@@H]2O)c(=O)n1 [Cytarabine] + C[C@@H](Oc1cc(-c2cnn(C3CCNCC3)c2)cnc1N)c1c(Cl)ccc(F)c1Cl [Crizotinib] (partner 1 µM)	NCI-H1650	0.752

Below are 3 compounds. Give each one its relative viability.
1. Nc1ccn([C@@H]2O[C@H](CO)[C@@H](O)[C@@H]2O)c(=O)n1 [Cytarabine] + O=C(c1cc(Cc2n[nH]c(=O)c3ccccc23)ccc1F)N1CCN(C(=O)C2CC2)CC1 [Olaparib] (partner 8 µM)
2. COc1cc2nccc(Oc3ccc(NC(=O)Nc4cc(C)on4)c(Cl)c3)c2cc1OC [Tivozanib] + O=C(c1cc(Cc2n[nH]c(=O)c3ccccc23)ccc1F)N1CCN(C(=O)C2CC2)CC1 [Olaparib] (partner 8 µM)
3. COc1cc2nccc(Oc3ccc(NC(=O)Nc4cc(C)on4)c(Cl)c3)c2cc1OC [Tivozanib] + CS(=O)(=O)CCNCc1ccc(-c2ccc3ncnc(Nc4ccc(OCc5cccc(F)c5)c(Cl)c4)c3c2)o1 [Lapatinib] (partner 2 µM)

[0.638, 0.714, 0.707]

Reference for the values: the supplement of paper PMC10307832
